Test system: erythrocyte suspensions of horse blood;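 also: Read-out is hemoglobin release into the supernatant, with a buffer-only blank subtracted as the 0% baseline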
SETUP_CONDITIONS: 250 µM peptide; horse erythrocytes 5% vol/vol, TRIS buffer pH 7.2, 1 h at 37°C, absorbance 540 nm; relative to melittin 100 μM; ± confidence interval (α = 0.05)
Where a SMILES comes first, the peptide text is derived from it. Side-chain parts run from the residue outwards. [ ]: non-standard residue; d: D form. The star is where a group is joined. Pentanoyl(4-Me) = CC(C)CCC(=O)*; Hexanoyl = CCCCCC(=O)*; Pentanoyl = CCCCC(=O)*; Butyryl = CCCC(=O)*
In this section, each of the molecules is paired with its reported Hemolysis (%) 250 µM.
The answer is to be given in %; state only the numeric part.

- MOLECULE: "CCCC(=O)N[C@@H](CCCCN)C(=O)N[C@@H](CC(C)C)C(=O)NCCCC[C@@H]1NC(=O)[C@H](CCCCN)NC(=O)[C@H](CC(C)C)NC(=O)[C@H](CCCCN)NC(=O)[C@H](CCCCN)NC(=O)[C@H](CCC(N)=O)NC(=O)[C@H](CC(C)C)NC(=O)[C@H](CCCCN)NC(=O)[C@H](CCCCN)NC(=O)[C@@H](Cc2ccccc2)NC1=O [BPC726, c(KKLKK(LK-CO-C3H7)fKKLQ)] (cyclo(KKLKK([Leu-Lys-Butyryl])[dF]KKLQ))"
  NUMERIC_VALUE: 4
- MOLECULE: "CCCCC(=O)NCCCC[C@@H]1NC(=O)[C@H](CCCCN)NC(=O)[C@H](CC(C)C)NC(=O)[C@H](CCCCN)NC(=O)[C@H](CCCCN)NC(=O)[C@H](CCC(N)=O)NC(=O)[C@H](CC(C)C)NC(=O)[C@H](CCCCN)NC(=O)[C@H](CCCCN)NC(=O)[C@H](Cc2ccccc2)NC1=O [BPC526, c(KKLKK(CO-C4H9)FKKLQ)] (cyclo(FKKLQKKLKK(Pentanoyl)))"
  NUMERIC_VALUE: 78
- MOLECULE: "CCCC(=O)NCCCC[C@H]1NC(=O)[C@H](CCC(N)=O)NC(=O)[C@H](CC(C)C)NC(=O)[C@H](CCCCN)NC(=O)[C@H](CCCCN)NC(=O)[C@H](Cc2ccccc2)NC(=O)[C@H](CCCCN)NC(=O)[C@H](CCCCN)NC(=O)[C@H](CC(C)C)NC(=O)[C@H](CCCCN)NC1=O [BPC706] (cyclo(FKKLQ[dK](Butyryl)KLKK))"
  NUMERIC_VALUE: 46
- MOLECULE: "CCCCCC(=O)NCCCC[C@H]1NC(=O)[C@H](CCCCN)NC(=O)[C@H](CC(C)C)NC(=O)[C@H](CCCCN)NC(=O)[C@H](CCCCN)NC(=O)[C@H](CCC(N)=O)NC(=O)[C@H](CC(C)C)NC(=O)[C@H](CCCCN)NC(=O)[C@H](CCCCN)NC(=O)[C@H](Cc2ccccc2)NC1=O [BPC628, c(KKLKk(CO-nC5H11)FKKLQ)] (cyclo(FKKLQKKLK[dK](Hexanoyl)))"
  NUMERIC_VALUE: 34
- MOLECULE: "CCCC(=O)NCCCC[C@H]1NC(=O)[C@H](CCCCN)NC(=O)[C@H](CCC(N)=O)NC(=O)[C@H](CC(C)C)NC(=O)[C@H](CCCCN)NC(=O)[C@H](CCCCN)NC(=O)[C@H](Cc2ccccc2)NC(=O)[C@H](CCCCN)NC(=O)[C@H](CCCCN)NC(=O)[C@H](CC(C)C)NC1=O [BPC704] (cyclo(FKKLQK[dK](Butyryl)LKK))"
  NUMERIC_VALUE: 16

## Input Recorded Hemolysis (%) 250 µM for CCCC(=O)NCCCC[C@@H]1NC(=O)[C@H](CCCCN)NC(=O)[C@H](CCC(N)=O)NC(=O)[C@H](CC(C)C)NC(=O)[C@H](CCCCN)NC(=O)[C@H](CCCCN)NC(=O)[C@H](Cc2c[nH]cn2)NC(=O)[C@H](CCCCN)NC(=O)[C@H](CCCCN)NC(=O)[C@H](CC(C)C)NC1=O [BPC720] (cyclo(HKKLQKK(Butyryl)LKK)) , please?
## Output 4

## Input Recorded Hemolysis (%) 250 µM for CC(C)CCC(=O)NCCCC[C@H]1NC(=O)[C@H](CCCCN)NC(=O)[C@H](CC(C)C)NC(=O)[C@H](CCCCN)NC(=O)[C@H](CCCCN)NC(=O)[C@H](CCC(N)=O)NC(=O)[C@H](CC(C)C)NC(=O)[C@H](CCCCN)NC(=O)[C@H](CCCCN)NC(=O)[C@@H](Cc2ccccc2)NC1=O [BPC634, c(KKLKk(CO-isoC5H11)fKKLQ)] (cyclo(KKLK[dK](Pentanoyl(4-Me))[dF]KKLQ)) , please?
## Output 17

## Input Recorded Hemolysis (%) 250 µM for CC(C)CCC(=O)NCCCC[C@@H]1NC(=O)[C@H](CCCCN)NC(=O)[C@H](CC(C)C)NC(=O)[C@H](CCCCN)NC(=O)[C@H](CCCCN)NC(=O)[C@H](CCC(N)=O)NC(=O)[C@H](CC(C)C)NC(=O)[C@H](CCCCN)NC(=O)[C@H](CCCCN)NC(=O)[C@@H](Cc2ccccc2)NC1=O [BPC626, c(KKLKK(CO-isoC5H11)fKKLQ)] (cyclo(KKLKK(Pentanoyl(4-Me))[dF]KKLQ)) , please?
## Output 54

## Input Recorded Hemolysis (%) 250 µM for CC(C)CCC(=O)NCCCC[C@H]1NC(=O)[C@H](CCCCN)NC(=O)[C@H](CC(C)C)NC(=O)[C@H](CCCCN)NC(=O)[C@H](CCCCN)NC(=O)[C@H](CCC(N)=O)NC(=O)[C@H](CC(C)C)NC(=O)[C@H](CCCCN)NC(=O)[C@H](CCCCN)NC(=O)[C@H](Cc2ccccc2)NC1=O [BPC630, c(KKLKk(CO-isoC5H11)FKKLQ)] (cyclo(FKKLQKKLK[dK](Pentanoyl(4-Me)))) , please?
## Output 28

## Input Recorded Hemolysis (%) 250 µM for CCCC(=O)N[C@@H](CCCCN)C(=O)N[C@@H](CC(C)C)C(=O)NCCCC[C@H]1NC(=O)[C@H](CCCCN)NC(=O)[C@H](CC(C)C)NC(=O)[C@H](CCCCN)NC(=O)[C@H](CCCCN)NC(=O)[C@H](CCC(N)=O)NC(=O)[C@H](CC(C)C)NC(=O)[C@H](CCCCN)NC(=O)[C@H](CCCCN)NC(=O)[C@H](Cc2ccccc2)NC1=O [BPC724, c(KKLKk(LK-CO-C3H7)FKKLQ)] (cyclo(FKKLQKKLK[dK]([Leu-Lys-Butyryl]))) , please?
## Output 3

## Input Recorded Hemolysis (%) 250 µM for CCCC(=O)NCCCC[C@@H]1NC(=O)[C@H](CCCCN)NC(=O)[C@H](CC(C)C)NC(=O)[C@H](CCCCN)NC(=O)[C@H](CCCCN)NC(=O)[C@H](CCC(N)=O)NC(=O)[C@H](CC(C)C)NC(=O)[C@H](CCCCN)NC(=O)[C@H](CCCCN)NC(=O)[C@H](Cc2ccccc2)NC1=O [BPC500, c(KKLKK(CO-C3H7)FKKLQ)] (cyclo(FKKLQKKLKK(Butyryl))) , please?
## Output 38

---

In this section, each of the compounds is paired with its reported MIC Ea.
Tested on: Erwinia amylovora PMV6076
ASSAY_PROCEDURE: MIC, in vitro growth inhibition
Format: cell-based
SETUP_CONDITIONS: TSB, 25°C, 48 h, OD 600 nm; tested at 3.1, 6.2, 12.5, 25, 50 μM; three replicates, experiment repeated twice; MIC = lowest concentration with no growth
Where a SMILES comes first, the peptide text is derived from it. The star is where a group is joined. Octanoyl = CCCCCCCC(=O)*; Hexanoyl = CCCCCC(=O)*

- COMPOUND: "CCCCCC(=O)NCCCC[C@@H]1NC(=O)[C@H](CC(C)C)NC(=O)[C@H](CCCCN)NC(=O)[C@H](CCCCN)NC(=O)[C@H](CCC(N)=O)NC(=O)[C@H](CC(C)C)NC(=O)[C@H](CCCCN)NC(=O)[C@H](CCCCN)NC(=O)[C@H](Cc2ccccc2)NC(=O)[C@H](CCCCN)NC1=O [BPC586, c(KKLK(CO-nC5H11)KFKKLQ)] (cyclo(FKKLQKKLK(Hexanoyl)K))"
  STUDY_SYSTEM: "Erwinia amylovora PMV6076"
  MIC Ea: "12.5 to 25 µM"

The record that follows has no MIC Ea shown yet.
## Input Please provide the recorded MIC Ea for CCCCCCCC(=O)NCCCC[C@@H]1NC(=O)[C@H](CCCCN)NC(=O)[C@H](CC(C)C)NC(=O)[C@H](CCCCN)NC(=O)[C@H](CCCCN)NC(=O)[C@H](CCC(N)=O)NC(=O)[C@H](CC(C)C)NC(=O)[C@H](CCCCN)NC(=O)[C@H](CCCCN)NC(=O)[C@H](Cc2c[nH]cn2)NC1=O [BPC670, c(KKLKK(CO-C7H15)HKKLQ)] (cyclo(HKKLQKKLKK(Octanoyl))) , tested on Erwinia amylovora PMV6076.
## Output 25 to 50 µM

Where do the numbers come from? From paper PMC4805166.
